experiment: physchem; conditions: propylene glycol, organic solvent or mixture, solubility, in propylene glycol
readout: solubility (mg/mL)

>>> endpoint_result("CCC[S+]([O-])c1ccc2[nH]c(NC(=O)OC)nc2c1 (stereo not shown) [albendazole sulfoxide]")
17.7
